Recorded measurements of fold specificity for AAV9 capsids, one per entry
measurementTarget: T1, AAV9 capsids (adeno-associated virus serotype 9, Assembled icosahedral capsid of about 60 subunits (VP1, VP2, VP3 from one gene). One VP1 chain is given. Example 1's screen does not say whether the capsids were full or empty.)
T1 construct: Assembled virus capsid
testName: ELISA, AAV9 capsids coated on plate, His-tagged variant in E. coli lysate, anti-His-HRP luminescence; signal relative to HSA (A) or to PKD2 control (B)

Answered examples (3):
1. SEQ ID NO 35 (designed binder, N-terminal Met printed as (M)) MATGVRAVPGNENSLEIEELARFAVDEHNKKENALLEFVRVVKAKEQVVAGTMYYLTLEAKDGGKKKLYEAKVWVKVRDIVSIRGNFKELQEFKPVGDA: > 3 fold
2. SEQ ID NO 47 (designed binder, N-terminal Met printed as (M)) MATGVRAVPGNENSLEIEELARFAVDEHNKKENALLEFVRVVKAKEQVVAGTMYYLTLEAKDGGKKKLYEAKVWVKVNIYVISPRNFKELQEFKPVGDA: > 3 fold
3. SEQ ID NO 50 (designed binder, N-terminal Met printed as (M)) MATGVRAVPGNENSLEIEELARFAVDEHNKKENALLEFVRVVKAKEQVVAGTMYYLTLEAKDGGKKKLYEAKVWVKVRRYSPPNRNFKELQEFKPVGDA: > 3 fold

# fold specificity for AAV9 capsids (binder: SEQ ID NO 52 (designed binder, N-terminal Met printed as (M)) MATGVRAMPGNENSLEIEELARFAVDEHNKKENALLEFVRVVKAKEQVVAGTMYYLTLEAKDGGKKKLYEAKVWVKVWWVVSDPANFKELQEFKPVGDA ) is > 3 fold

// provenance: patent US20230391832A1
